Listed here: items and their measured melting point.

[
  {
    "COMPOUND_STRING": "O=C(c1c(F)cc(F)cc1F)N1CCC[C@H](c2nc(-c3ccc(F)cc3)no2)C1",
    "melting point": "125 to 130 °C"
  },
  {
    "COMPOUND_STRING": "Cc1c[nH]cc1C(=O)N1CCC[C@H](c2nc(-c3ccc(F)cc3)no2)C1",
    "melting point": "167.5 to 168.9 °C"
  },
  {
    "COMPOUND_STRING": "O=C(C1CCSCC1)N1CCC[C@H](c2nc(-c3ccc(F)cc3)no2)C1",
    "melting point": "139 to 141 °C"
  },
  {
    "COMPOUND_STRING": "O=C(c1ccc(F)cc1)N1CCC[C@H](c2nc(-c3cscn3)no2)C1",
    "melting point": "118 to 120 °C"
  },
  {
    "COMPOUND_STRING": "O=C(c1ccc(F)cc1)N1CCC=C(c2nc(-c3ccc(F)cc3)no2)C1",
    "melting point": "138 to 140 °C"
  },
  {
    "COMPOUND_STRING": "O=C(C1CCCCC1)N1CCC[C@H](c2nc(-c3ccc(F)cc3)no2)C1",
    "melting point": "80 to 85 °C"
  },
  {
    "COMPOUND_STRING": "CN(C)c1ccc(-c2noc([C@H]3CCCN(C(=O)c4ccc(F)cc4)C3)n2)cc1",
    "melting point": "147 to 153 °C"
  },
  {
    "COMPOUND_STRING": "O=C(c1ccccc1)c1cccc(C(=O)N2CCC[C@H](c3nc(-c4ccc(F)cc4)no3)C2)c1",
    "melting point": "158 to 163 °C"
  }
]

Turning to the following compound.
Query string: Requested field: melting point. Item: O=C(c1ccc(F)c(F)c1)N1CCC[C@H](c2nc(-c3cscn3)no2)C1
Result string: 107 to 109 °C

###

# TARGET_UNDER_TEST: rat mGluR5 (Rattus norvegicus, UniProt P31424)
# Sequence (P31424 21-1171 isoform P31424-2 limits assumed): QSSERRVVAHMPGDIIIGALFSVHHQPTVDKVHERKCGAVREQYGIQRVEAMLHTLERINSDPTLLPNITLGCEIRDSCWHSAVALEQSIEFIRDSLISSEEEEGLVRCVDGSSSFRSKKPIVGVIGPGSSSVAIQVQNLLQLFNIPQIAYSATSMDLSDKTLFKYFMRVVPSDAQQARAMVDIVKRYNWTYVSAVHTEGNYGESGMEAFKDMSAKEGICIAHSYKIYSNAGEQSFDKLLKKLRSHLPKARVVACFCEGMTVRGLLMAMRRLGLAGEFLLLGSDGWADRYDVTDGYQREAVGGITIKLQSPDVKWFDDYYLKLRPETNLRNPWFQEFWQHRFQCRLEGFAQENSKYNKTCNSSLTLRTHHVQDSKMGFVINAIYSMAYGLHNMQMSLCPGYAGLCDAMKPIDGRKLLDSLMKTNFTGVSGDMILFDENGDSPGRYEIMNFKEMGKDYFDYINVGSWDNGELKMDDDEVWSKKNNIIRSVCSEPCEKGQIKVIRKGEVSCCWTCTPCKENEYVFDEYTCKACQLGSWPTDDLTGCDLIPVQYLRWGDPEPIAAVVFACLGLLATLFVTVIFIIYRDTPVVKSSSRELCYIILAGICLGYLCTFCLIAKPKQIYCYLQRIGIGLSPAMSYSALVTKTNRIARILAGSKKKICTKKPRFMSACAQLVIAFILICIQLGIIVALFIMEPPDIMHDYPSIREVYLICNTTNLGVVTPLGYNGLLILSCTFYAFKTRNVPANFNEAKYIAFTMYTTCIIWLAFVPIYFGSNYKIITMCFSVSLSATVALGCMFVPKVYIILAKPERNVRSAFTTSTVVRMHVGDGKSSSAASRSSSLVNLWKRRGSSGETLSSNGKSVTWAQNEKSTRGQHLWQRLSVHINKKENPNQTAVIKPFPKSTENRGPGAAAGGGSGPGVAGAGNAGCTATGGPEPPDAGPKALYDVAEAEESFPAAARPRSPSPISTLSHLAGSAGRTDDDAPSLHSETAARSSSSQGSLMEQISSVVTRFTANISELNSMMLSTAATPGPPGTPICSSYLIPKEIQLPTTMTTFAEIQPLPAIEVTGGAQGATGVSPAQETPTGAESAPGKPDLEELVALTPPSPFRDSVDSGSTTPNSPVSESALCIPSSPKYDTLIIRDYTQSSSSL
# ASSAY_NOTES: mGluR5 assay on HEK-expressing rat mGluR5 (fluorescent cell based Ca2+ mobilization assay)
# EXPERIMENTAL_PARAMETERS: HEK-293 cells stably expressing rat mGluR5; no co-addition of glutamate; mean of at least three independent experiments in duplicate; read-out: Ca++ Flux (mean EC50)
# Procedure: mGluR5 Assay on HEK-Expressing Rat mGluR5 Positive functional expression of HEK-293 cells stably expressing rat mGluR5 receptor was determined by measuring intracellular Ca^2+ changes using a Fluorometric Imaging Plate Reader (FLIPR, Molecular Devices, Sunnyvale, Calif.) in response to glutamate or selective known mGluR5 agonists and antagonists. Rat mGluR5 RT-PCR products in HEK-293 cells were sequenced and found 100% identical to rat mGluR5 Genbank reference sequence (NM_017012). […]
# Lookup of reported EC50 keyed by entry

Worked set:
[
  {
    "COMPOUND_STRING": "Cc1nocc1C(=O)N1CCC[C@H](c2nc(-c3ccc(F)cc3)no2)C1",
    "VALUE_KIND": "EC50",
    "OBSERVED_VALUE": "1 to 10 µM"
  },
  {
    "COMPOUND_STRING": "Cc1ccoc1C(=O)N1CCC[C@H](c2nc(-c3ccc(F)cc3)no2)C1",
    "VALUE_KIND": "EC50",
    "OBSERVED_VALUE": "1 to 10 µM"
  },
  {
    "COMPOUND_STRING": "O=C(c1ccccc1NCc1ccccc1)N1CCC[C@H](c2nc(-c3ccc(F)cc3)no2)C1",
    "VALUE_KIND": "EC50",
    "OBSERVED_VALUE": "> 10 µM"
  },
  {
    "COMPOUND_STRING": "Cc1cc(F)ccc1C(=O)N1CCC[C@H](c2nc(-c3ccc(F)cc3)no2)C1",
    "VALUE_KIND": "EC50",
    "OBSERVED_VALUE": "< 1 µM"
  },
  {
    "COMPOUND_STRING": "O=C(c1ccc(F)cc1)N1CCC[C@H](c2nc(-c3cnccn3)no2)C1",
    "VALUE_KIND": "EC50",
    "OBSERVED_VALUE": "> 10 µM"
  },
  {
    "COMPOUND_STRING": "Cc1oncc1C(=O)N1CCC[C@H](c2nc(-c3ccsc3)no2)C1",
    "VALUE_KIND": "EC50",
    "OBSERVED_VALUE": "< 1 µM"
  }
]

Query string: Given the compound O=C(C1CCCCC1)N1CCC[C@H](c2nc(-c3ccc(F)cc3)no2)C1 , what is its reported EC50?
Result string: 1 to 10 µM

Query string: Name the recorded EC50 for Cc1nnsc1C(=O)N1CCC[C@H](c2nc(-c3ccc(F)cc3)no2)C1 .
Result string: 1 to 10 µM

Query string: What EC50 value was documented for this compound, Cc1oncc1C(=O)N1CCC[C@H](c2nc(-c3ccc(F)cc3F)no2)C1 ?
Result string: 1 to 10 µM

###

# TARGET_UNDER_TEST: UniProt:P31424
# ASSAY_NOTES: mGluR5 assay on HEK-expressing rat mGluR5 (fluorescent cell based Ca2+ mobilization assay)
# EXPERIMENTAL_PARAMETERS: HEK-293 cells stably expressing rat mGluR5; no co-addition of glutamate; mean of at least three independent experiments in duplicate; read-out: Ca++ Flux (mean EC50)
pEC50: −log10 of the molar value.
// pEC50 lookup, one value per entry

Below are worked cases with known answers.
[
  {
    "COMPOUND": "CCc1oncc1C(=O)N1CCC[C@H](c2nc(-c3ccc(F)cc3)no2)C1 [Example 46]",
    "TARGET_UNDER_TEST": "UniProt:P31424",
    "pEC50": "5.00 to 6.00"
  },
  {
    "COMPOUND": "CNc1cc(F)ccc1C(=O)N1CCC[C@H](c2nc(-c3ccc(F)cc3)no2)C1 [Example 42]",
    "TARGET_UNDER_TEST": "UniProt:P31424",
    "pEC50": "< 5.00"
  },
  {
    "COMPOUND": "CCc1ccccc1C(=O)N1CCC[C@H](c2nc(-c3ccc(F)cc3)no2)C1 [Example 20]",
    "TARGET_UNDER_TEST": "UniProt:P31424",
    "pEC50": "5.00 to 6.00"
  },
  {
    "COMPOUND": "Cc1ccc(-c2noc([C@H]3CCCN(C(=O)c4ccc(F)cc4)C3)n2)o1 [Example 34]",
    "TARGET_UNDER_TEST": "UniProt:P31424",
    "pEC50": "5.00 to 6.00"
  },
  {
    "COMPOUND": "O=C(c1ccnc(F)c1)N1CCC[C@H](c2nc(-c3ccc(F)cc3)no2)C1 [Example 77]",
    "TARGET_UNDER_TEST": "UniProt:P31424",
    "pEC50": "> 6.00"
  },
  {
    "COMPOUND": "O=C(c1ccc(F)cc1)N1CCC[C@H](c2nc(-c3ccsc3)no2)C1 [Example 38]",
    "TARGET_UNDER_TEST": "UniProt:P31424",
    "pEC50": "> 6.00"
  },
  {
    "COMPOUND": "Cc1c(C(=O)N2CCC[C@H](c3nc(-c4ccc(F)cc4)no3)C2)cnn1C [Example 21]",
    "TARGET_UNDER_TEST": "UniProt:P31424",
    "pEC50": "5.00 to 6.00"
  },
  {
    "COMPOUND": "O=C(c1cccc(COc2ccccc2)c1)N1CCC[C@H](c2nc(-c3ccc(F)cc3)no2)C1 [Example 6]",
    "TARGET_UNDER_TEST": "UniProt:P31424",
    "pEC50": "< 5.00"
  },
  {
    "COMPOUND": "CN(C)c1ccc(-c2noc([C@H]3CCCN(C(=O)c4ccc(F)cc4)C3)n2)cc1 [Example 58]",
    "TARGET_UNDER_TEST": "UniProt:P31424",
    "pEC50": "< 5.00"
  },
  {
    "COMPOUND": "O=C(c1ccc(F)nc1)N1CCC[C@H](c2nc(-c3ccccc3F)no2)C1 [Example 64]",
    "TARGET_UNDER_TEST": "UniProt:P31424",
    "pEC50": "> 6.00"
  }
]

// switching to the query compound
Query string: Reported pEC50 for O=C(C1CCc2cc(F)ccc21)N1CCC[C@H](c2nc(-c3ccc(F)cc3)no2)C1 (stereo partly shown) [Example 8] : what is it?
Result string: < 5.00

Data provenance: patent US20090197897A1
